# Test system: IL-1β, human peripheral blood mononuclear cells (PBMC)
# assay_summary: PBMC cell assay: IL-1β assay with human PBMC or enriched adherent mononuclear cells, LPS-stimulated
# Format: cell-based
# protocol_conditions: Homo sapiens, PBMC, * = values obtained upon reassay
# reported log10 of IC50; entries follow
quantity_name: log10 of IC50 (log10 of the value in µM)

{"compound": "CC(=O)CC(=O)N1C[C@H](NC(=O)c2ccccc2)C(=O)N(CC(=O)N[C@H](C=O)CC(=O)O)c2ccccc21 [Compound 605g]", "log10 of IC50": 1.35}
{"compound": "COc1cc(C(=O)N[C@H]2CCC(=O)N3CCC[C@@H](C(=O)N[C@H](C=O)CC(=O)O)N3C2=O)nc2ccccc12 [Compound 437]", "log10 of IC50": 0.26}
{"compound": "O=C[C@H](CC(=O)O)NC(=O)CN1C(=O)[C@@H](NC(=O)c2ccccc2)CN(C(=O)Cc2ccccc2)c2ccccc21 [Compound 605b]", "log10 of IC50": 1.00}
{"compound": "Nc1c(Cl)cc(C(=O)N[C@H]2CCC(=O)N3CCC[C@@H](C(=O)N[C@H](C=O)CC(=O)O)N3C2=O)cc1Cl [Compound 482]", "log10 of IC50": -0.47}
{"compound": "O=C[C@H](CC(=O)O)NC(=O)[C@@H]1CCCN2C(=O)CC[C@H](NC(=O)c3ccnc4ccccc34)C(=O)N12 [Compound 435]", "log10 of IC50": 0.64}
{"compound": "O=C[C@H](CC(=O)O)NC(=O)[C@@H]1CCCN2C(=O)CC[C@H](NC(=O)c3ccc4ccccc4c3O)C(=O)N12 [Compound 449]", "log10 of IC50": 0.18}
